Each recorded value in this set is attributed to ChEMBL document CHEMBL2380248.

Molecular target: Interstitial collagenase (Homo sapiens)
Sequence (P03956 whole entry): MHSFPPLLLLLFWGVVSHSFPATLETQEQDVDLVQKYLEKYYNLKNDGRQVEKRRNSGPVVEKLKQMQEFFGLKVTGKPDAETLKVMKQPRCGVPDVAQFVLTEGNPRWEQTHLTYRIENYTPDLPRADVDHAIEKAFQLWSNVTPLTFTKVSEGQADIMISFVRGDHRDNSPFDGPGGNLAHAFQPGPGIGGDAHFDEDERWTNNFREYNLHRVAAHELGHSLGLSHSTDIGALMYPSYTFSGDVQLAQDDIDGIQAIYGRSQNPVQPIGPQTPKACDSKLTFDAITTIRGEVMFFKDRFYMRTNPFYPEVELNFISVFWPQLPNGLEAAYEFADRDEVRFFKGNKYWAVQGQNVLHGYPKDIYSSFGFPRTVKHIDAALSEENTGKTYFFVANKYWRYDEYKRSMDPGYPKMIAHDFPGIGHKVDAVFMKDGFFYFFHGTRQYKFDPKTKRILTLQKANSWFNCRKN
measured attribute: pKi
Schema: pKi number; meaning minus log10 of the concentration expressed in molar units.

INSERT INTO assay_data (compound, measured_result) VALUES
  ('O=S(=O)(N[C@H]1CNC[C@@H]1S)c1ccc(Oc2ccccc2)cc1 (racemic)', 4.60),
  ('CNC(=O)[C@H](Cc1ccccc1)NC(=O)[C@@H](CC(C)C)S[C@H]1CN(C(=O)CCCN2C(=O)c3ccccc3C2=O)C[C@H]1S (mixture of isomers)', 7.12),
  ('CNC(=O)[C@H](Cc1ccccc1)NC(=O)[C@@H](CC(C)C)S[C@H]1CN(C(C)=O)C[C@H]1S (mixture of isomers)', 7.00),
  ('CNC(=O)[C@H](Cc1ccccc1)NC(=O)[C@@H](CC(C)C)S[C@H]1CNC[C@H]1S (mixture of isomers)', 6.59),
  ('O=S(=O)(N[C@H]1CCC[C@@H]1S)c1ccc(Oc2ccccc2)cc1', 5.68);

Request: Data request, read-out pKi, for O=S(=O)(N[C@H]1CCC[C@@H]1S)c1ccc(-c2ccccc2)cc1 (racemic)
Result: 5.00
